Taken from ChEMBL document CHEMBL3882241.

Molecular target: Serum amyloid P-component (Homo sapiens) (UniProt P02743)
Sequence (P02743 whole entry): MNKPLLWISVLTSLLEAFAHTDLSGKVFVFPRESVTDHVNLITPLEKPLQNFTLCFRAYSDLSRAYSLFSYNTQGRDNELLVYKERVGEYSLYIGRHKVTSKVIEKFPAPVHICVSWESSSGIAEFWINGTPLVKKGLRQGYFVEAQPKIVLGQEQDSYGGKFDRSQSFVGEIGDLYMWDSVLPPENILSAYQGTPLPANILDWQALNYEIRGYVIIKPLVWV
Test: Inhibition of calcium dependent [125I]serum amyloid P-component (unknown origin) binding to immobilized chicken erythrocyte native long chromatin at 200 uM incubated for 2 hrs by gamma counting relative to control
Assignment: determine reported inhibition for the given compounds.
Please state the figure in %; there is no need to write the unit.

Request: Which inhibition is reported for this compound? COc1cccc(OCC(=O)N2CCC[C@@H]2C(=O)O)c1OCC(=O)N1CCC[C@@H]1C(=O)O
Response: 96

Request: What about this compound? O=C(O)[C@H]1CCCN1C(=O)CCCCC(=O)N1CCC[C@@H]1C(=O)O
Response: 87

Request: What about this compound? O=C(O)[C@H]1CCCN1C(=O)COc1cccc2c(OCC(=O)N3CCC[C@@H]3C(=O)O)cccc12
Response: 82
